- Test Target: cathepsin B (Rattus norvegicus)
- Assay Comment: In vitro assay procedure for cathepsin B (inhibition)
- Format: biochemical
- Details: rat cathepsin B, pH 5.1, 10 min incubation at room temperature, substrate N-CBZ-Phe-Arg-AMC; read-out: IC50 Cathepsin B
pIC50: −log10 of the molar value.
// reported pIC50 per item
Quantity: pIC50

>>> df
                                   molecule  reported
0  Cn1c2nc(=O)[nH]c(=O)c-2nc2cc(C(=O)OC[C@H]3CN4C(=O)C[C@@H]4O3)ccc21 (relative stereo) [Example 14]      4.77
1  CC[C@H](C)[C@H](NC(=O)OCc1ccccc1)C(=O)N1CCC[C@H]1C(=O)OC[C@H]1CN2C(=O)C[C@@H]2O1 (mixture of isomers) [Example 8]      5.35
2  NC(CC(=O)O)C(=O)NCC(=O)NCC1CN2C(=O)CC2O1 (centres unmarked) [Example 40]      4.80
3  O=C(OC[C@H]1CN2C(=O)C[C@@H]2O1)[C@@H]1CCCN1C(=O)OCc1ccccc1 (mixture of isomers) [Example 5]      6.36
4  O=C(OC[C@H]1CN2C(=O)C[C@@H]2O1)C1CCCCC1 (racemic) [Example 11]      6.10
5  O=C(CO)NCC1CN2C(=O)CC2O1 (centres unmarked) [Example 45]      5.30
6  O=C(CCCCCCn1ccnn1)NCC1CN2C(=O)CC2O1 (centres unmarked) [Example 74]      5.19
7  O=C(CC1CN2C(=O)CC2O1)OC(c1ccccc1)c1ccccc1 (centres unmarked) [Example 18]      5.53

----------
- Test Target: papain (Carica papaya)
- Assay Comment: In vitro assay procedure for papain (inhibition)
- Type: biochemical
- Details: pH 6.5, 10 min incubation at room temperature, substrate N-CBZ-Pro-Phe-Arg-pNA; read-out: IC50 Papain
log10 of IC50: recorded values
Quantity: log10 of IC50 (log10 of the value in µM)

>>> df
                                   compound             test_target       quantity  reported
0  CC(C)(C)[Si](C)(C)OC[C@H]1CN2C(=O)C[C@H]2O1  papain (Carica papaya)  log10 of IC50      0.49
1  O=C1CC2OC(CNC(=O)C(F)(F)F)CN12 (stereo not shown)  papain (Carica papaya)  log10 of IC50     -0.08
2  O=C(OCC1CN2C(=O)CC2O1)c1ccccc1 (stereo not shown)  papain (Carica papaya)  log10 of IC50      0.60
3  Cc1c(C(=O)NC[C@@H]2CN3C(=O)C[C@@H]3O2)c(=O)[nH]c2ccccc12 (racemic)  papain (Carica papaya)  log10 of IC50     -0.15
4  NC(CCC(=O)OCC1CN2C(=O)CC2O1)C(=O)O (stereo not shown)  papain (Carica papaya)  log10 of IC50      0.47
5  O=C1CC(OCC2CN3C(=O)CC3O2)N1 (stereo not shown)  papain (Carica papaya)  log10 of IC50      0.38
6  O=C(O)C1CCCCC1C(=O)OCC1CN2C(=O)CC2O1 (stereo not shown)  papain (Carica papaya)  log10 of IC50      1.04

----------
Measured pIC50, listed per entry.
- Test Target: papain (Carica papaya, UniProt P00784)
- Sequence (P00784 134-345): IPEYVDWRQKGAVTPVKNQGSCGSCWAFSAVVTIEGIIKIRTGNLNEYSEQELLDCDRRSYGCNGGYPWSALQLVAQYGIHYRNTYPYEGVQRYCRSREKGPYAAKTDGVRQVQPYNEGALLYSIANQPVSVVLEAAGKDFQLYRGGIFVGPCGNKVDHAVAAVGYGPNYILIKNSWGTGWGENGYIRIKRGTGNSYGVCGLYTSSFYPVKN
- Assay Comment: In vitro assay procedure for papain (inhibition)
- Assay type: biochemical
- Details: pH 6.5, 10 min incubation at room temperature, substrate N-CBZ-Pro-Phe-Arg-pNA; read-out: IC50 Papain
- Procedure: To a 170 μl of enzyme-buffer mixture (enzyme: papain, diluted to give 30 mOD/min, buffer: 0.2 M potassium phosphate, 1.0 mM EDTA, 5 mM L-Cysteine, pH 6.5) a 10 μL of inhibitor (dissolved in DMSO) was added. After 10 min of incubation at room temperature, a 20 μl of 10 mM substrate (N-CBZ-Pro-Phe-Arg-pNA, dissolved in DMSO) was added to initiate reaction. Reading is followed up for 3 min at the Thermomax plate reader (absorbance at 405 nm) […]
pIC50: −log10 of the molar value.
Quantity: pIC50

In [3]: df
Out[3]:
                                   compound  quantity  qualifying_sign  reported
0  O=C(CCCCCCn1ccnn1)NCC1CN2C(=O)CC2O1 (stereo not drawn)     pIC50                =      5.48
1  Cc1ccc(S(=O)(=O)NCC2CN3C(=O)CC3O2)cc1 (stereo not drawn)     pIC50                =      5.75
2  COc1cc(C(=O)OCC2CN3C(=O)CC3O2)cc(OC)c1O (stereo not drawn)     pIC50                =      6.21
3  CCCCCCCCCCCCCCCC(=O)OCC1CN2C(=O)CC2O1 (stereo not drawn)     pIC50                <      4.30
4  CC[C@H](C)[C@H](NC(=O)OCc1ccccc1)C(=O)N1CCC[C@H]1C(=O)OC[C@H]1CN2C(=O)C[C@@H]2O1 (mixture of isomers)     pIC50                =      6.13
5  O=C(CCl)NCC1CN2C(=O)CC2O1 (stereo not drawn)     pIC50                =      6.05
6          CC(=O)NC[C@H]1CN2C(=O)C[C@@H]2O1     pIC50                =      6.23
7  O=COCCCCCC(=O)NCC1CN2C(=O)CC2O1 (stereo not drawn)     pIC50                =      5.66
8  CC(C)(C)[Si](C)(C)OC[C@H]1CN2C(=O)C[C@@H]2O1     pIC50                =      6.80

----------
- Test Target: cathepsin B (Rattus norvegicus, UniProt P00787)
- Sequence (P00787 80-339): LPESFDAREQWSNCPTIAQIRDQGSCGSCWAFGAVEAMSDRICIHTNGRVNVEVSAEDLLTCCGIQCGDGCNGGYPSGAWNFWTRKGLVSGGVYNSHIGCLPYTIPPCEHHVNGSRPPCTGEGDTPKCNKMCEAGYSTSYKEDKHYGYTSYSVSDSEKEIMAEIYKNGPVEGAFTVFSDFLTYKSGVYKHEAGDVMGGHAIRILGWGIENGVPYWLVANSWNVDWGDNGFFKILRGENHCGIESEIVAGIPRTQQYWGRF
- Assay Comment: In vitro assay procedure for cathepsin B (inhibition)
- Type: biochemical
- Details: rat cathepsin B, pH 5.1, 10 min incubation at room temperature, substrate N-CBZ-Phe-Arg-AMC; read-out: IC50 Cathepsin B
Below, each entry is listed alongside its reported IC50.
Quantity: IC50 (µM)

>>> df
                                   molecule  quantity  reading_unit  reported
0  O=C1CC2OC(CSc3ccccc3)CN12 (stereo not shown)      IC50            µM      0.42
1  O=C1CC2OC(CNS(=O)(=O)c3ccc(Cl)cc3)CN12 (stereo not shown)      IC50            µM      0.63
2  O=C1CC2OC(CS(=O)(=O)c3ccccc3)CN12 (stereo not shown)      IC50            µM       1.6
3  O=C(O)C[S+]([O-])CC1CN2C(=O)CC2O1 (stereo not shown)      IC50            µM      0.38
4  O=C1CC2OC(CNC(=O)C(F)(F)F)CN12 (stereo not shown)      IC50            µM      0.33
5  COc1ccc(C(=O)OCC2CN3C(=O)CC3O2)cc1 (stereo not shown)      IC50            µM       8.9
6  O=C(OCC1CN2C(=O)CC2O1)c1ccccc1 (stereo not shown)      IC50            µM         4
7  O=C(N[C@@H](Cc1ccccc1)C(=O)OC[C@H]1CN2C(=O)C[C@@H]2O1)OCc1ccccc1 (mixture of isomers)      IC50            µM      0.59
8  CC(=O)NCC(=O)NCC1CN2C(=O)CC2O1 (stereo not shown)      IC50            µM       2.6
9  O=C(NCC1CN2C(=O)CC2O1)C1CCCCC1 (stereo not shown)      IC50            µM      0.36

----------
- Test Target: cathepsin B (Rattus norvegicus, UniProt P00787)
- Assay Comment: In vitro assay procedure for cathepsin B (inhibition)
- Format: biochemical
- Details: rat cathepsin B, pH 5.1, 10 min incubation at room temperature, substrate N-CBZ-Phe-Arg-AMC; read-out: IC50 Cathepsin B
Quantity: IC50

In [3]: df
Out[3]:
                                    compound                               test_target    reported
 0  O=C(O)C1CCCCC1C(=O)OCC1CN2C(=O)CC2O1 (stereo not drawn)  cathepsin B (Rattus norvegicus, UniProt P00787)      340 nM
 1  O=C(N[C@@H](Cc1ccccc1)C(=O)NCC1CN2C(=O)CC2O1)OCc1ccccc1 (stereo partly drawn)  cathepsin B (Rattus norvegicus, UniProt P00787)     2400 nM
 2  NC(CC(=O)O)C(=O)OCC1CN2C(=O)CC2O1 (stereo not drawn)  cathepsin B (Rattus norvegicus, UniProt P00787)  > 20000 nM
 3         O=C1C[C@@H]2O[C@@H](Cn3ccnn3)CN12  cathepsin B (Rattus norvegicus, UniProt P00787)      290 nM
 4          CC(=O)NC[C@H]1CN2C(=O)C[C@@H]2O1  cathepsin B (Rattus norvegicus, UniProt P00787)      560 nM
 5  O=C(O)C=CC(=O)OCC1CN2C(=O)CC2O1 (stereo not drawn)  cathepsin B (Rattus norvegicus, UniProt P00787)     1900 nM
 6  CC(N)C(=O)OCC1CN2C(=O)CC2O1 (stereo not drawn)  cathepsin B (Rattus norvegicus, UniProt P00787)  > 20000 nM
 7  O=C(NC(CO)C(=O)OCC1CN2C(=O)CC2O1)OCc1ccccc1 (stereo not drawn)  cathepsin B (Rattus norvegicus, UniProt P00787)     2700 nM
 8  O=COCCCCCC(=O)NCC1CN2C(=O)CC2O1 (stereo not drawn)  cathepsin B (Rattus norvegicus, UniProt P00787)     3500 nM
 9  COc1ccc(S(=O)(=O)NCC2CN3C(=O)CC3O2)cc1 (stereo not drawn)  cathepsin B (Rattus norvegicus, UniProt P00787)      640 nM
10  O=C(O)CS(=O)(=O)CC1CN2C(=O)CC2O1 (stereo not drawn)  cathepsin B (Rattus norvegicus, UniProt P00787)      740 nM
11  Nc1ccc(C(=O)OCC2CN3C(=O)CC3O2)cc1 (stereo not drawn)  cathepsin B (Rattus norvegicus, UniProt P00787)     3800 nM
12  O=C(OCC1CN2C(=O)CC2O1)c1ccc(F)cc1 (stereo not drawn)  cathepsin B (Rattus norvegicus, UniProt P00787)     3800 nM
13  CS(=O)(=O)NCC1CN2C(=O)CC2O1 (stereo not drawn)  cathepsin B (Rattus norvegicus, UniProt P00787)      950 nM
14  O=C(OCC1CN2C(=O)CC2O1)c1cc(F)c(F)cc1F (stereo not drawn)  cathepsin B (Rattus norvegicus, UniProt P00787)     8300 nM
15  COc1ccc(C(=O)NCC2CN3C(=O)CC3O2)cc1 (stereo not drawn)  cathepsin B (Rattus norvegicus, UniProt P00787)     3600 nM
16  O=C(/C=C/c1ccccc1)OC[C@H]1CN2C(=O)C[C@@H]2O1 (relative stereo)  cathepsin B (Rattus norvegicus, UniProt P00787)     4060 nM
17  CC(=O)OCC1CN2C(=O)CC2O1 (stereo not drawn)  cathepsin B (Rattus norvegicus, UniProt P00787)     1100 nM
18  CC(N)C(=O)NCC1CN2C(=O)CC2O1 (stereo not drawn)  cathepsin B (Rattus norvegicus, UniProt P00787)  > 20000 nM
19  O=C(O)COc1ccc(C(=O)OCC2CN3C(=O)CC3O2)cc1 (stereo not drawn)  cathepsin B (Rattus norvegicus, UniProt P00787)     2000 nM
20  O=C(OC[C@H]1CN2C(=O)C[C@@H]2O1)C1CCCC1 (racemic)  cathepsin B (Rattus norvegicus, UniProt P00787)      660 nM
